Provenance of the data: paper PMC6100603

targetDesc: α-Glucosidase from Saccharomyces cerevisiae
testDescription: α-Glucosidase inhibition assay (spectrophotometric, p-nitrophenyl-α-D-glucopyranoside)
Assay type: biochemical
conditionSet: mean ± spread, triplicate; listed as 7
propertyName: pIC50
A value of pIC50 is the negative decimal logarithm of a concentration given in moles per litre.

Find the recorded pIC50 belonging to NNC(=O)c1ccccc1NC(=O)c1ccccn1 and report it. 6.38

----------
targetDesc: Rabbit muscle glycogen phosphorylase a (Oryctolagus cuniculus, UniProt P00489)
Construct: purchased Abcam
Sequence (P00489 2-843 limits assumed): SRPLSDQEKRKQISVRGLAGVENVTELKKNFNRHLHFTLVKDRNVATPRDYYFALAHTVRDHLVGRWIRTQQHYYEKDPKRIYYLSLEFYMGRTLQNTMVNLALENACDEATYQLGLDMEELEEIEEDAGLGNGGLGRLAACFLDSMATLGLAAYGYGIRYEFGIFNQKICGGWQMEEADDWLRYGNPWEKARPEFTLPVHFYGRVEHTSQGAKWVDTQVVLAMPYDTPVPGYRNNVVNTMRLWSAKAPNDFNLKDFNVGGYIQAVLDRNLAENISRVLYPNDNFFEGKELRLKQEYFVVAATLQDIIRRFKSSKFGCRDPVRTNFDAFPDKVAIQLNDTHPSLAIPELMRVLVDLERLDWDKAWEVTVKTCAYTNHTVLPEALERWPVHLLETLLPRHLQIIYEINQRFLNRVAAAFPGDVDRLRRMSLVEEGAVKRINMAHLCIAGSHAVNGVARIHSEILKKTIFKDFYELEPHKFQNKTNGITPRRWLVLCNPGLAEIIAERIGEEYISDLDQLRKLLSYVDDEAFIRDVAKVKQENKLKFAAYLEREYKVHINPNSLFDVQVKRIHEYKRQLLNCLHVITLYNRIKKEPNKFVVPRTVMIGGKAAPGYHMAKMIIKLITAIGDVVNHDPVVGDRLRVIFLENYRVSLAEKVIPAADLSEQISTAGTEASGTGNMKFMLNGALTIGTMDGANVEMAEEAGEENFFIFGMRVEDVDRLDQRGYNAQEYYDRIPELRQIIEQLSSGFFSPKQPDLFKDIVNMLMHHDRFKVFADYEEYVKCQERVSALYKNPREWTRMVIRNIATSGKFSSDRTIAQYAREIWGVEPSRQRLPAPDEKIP
testDescription: Glycogen phosphorylase enzyme assay (phosphate release, malachite green)
Format: biochemical
conditionSet: mean of three determinations
Method: Rabbit muscle glycogen phosphorylase a (from Abcam, 0.475 mg/ mL) activity was measured in the direction of glycogen synthesis by the release of phosphate from glucose-1-phosphate using a 384-well plate at 22 °C in […] of buffer containing 50 mM Hepes (pH 7.2), 100 mM KCl, 2.5 mM EGTA, 2.5 Mm MgCl2, 0.25 Mm glucose-1-phosphate, and 1 mg/mL glycogen with a 30-min incubation time. […] Data were analyzed using GraphPad Prism v.4.03, GraphPad Software, (La Jolla, CA, USA). […]
Under this convention, t denotes IC50 strictly below 200 nM and f denotes IC50 at or above 200 nM.

Previously resolved entries follow.
[
  {
    "molecule": "NNC(=O)c1ccccc1NC(=O)c1ccccn1",
    "categoryLabel": "f"
  },
  {
    "molecule": "O=C(Nc1ccccc1C(=O)Nc1ccc(S(=O)(=O)Nc2ccccn2)cc1)c1ccccn1",
    "categoryLabel": "t"
  },
  {
    "molecule": "O=C(Nc1ccccc1C(=O)NCc1ccc(F)cc1)c1ccccn1",
    "categoryLabel": "t"
  },
  {
    "molecule": "OC[C@H]1NC[C@H](O)[C@@H](O)[C@@H]1O [1-Deoxynojirimycin, reference compound]",
    "categoryLabel": "t"
  },
  {
    "molecule": "COC(=O)c1ccccc1NC(=O)c1ccccn1 [Compound 1, Methyl 2-(picolinamido)benzoate]",
    "categoryLabel": "f"
  }
]

Please let me know if O=C(Nc1ccccc1C(=O)NCc1ccccc1)c1ccccn1 shows IC50 below 200 nM. t

Please let me know if O=C(Nc1ccccc1C(=O)N/N=C/c1ccccn1)c1ccccn1 shows IC50 below 200 nM. t

Please let me know if O=C(Nc1ccccc1C(=O)N/N=C/c1ccccc1)c1ccccn1 shows IC50 below 200 nM. f

----------
propertyName: melting point

Consider the reported melting point for these compounds:
[
  {
    "querySmiles": "COc1ccc(CNC(=O)c2ccccc2NC(=O)c2ccccn2)cc1",
    "observed": "225 to 227 °C"
  },
  {
    "querySmiles": "Cc1ccc(CNC(=O)c2ccccc2NC(=O)c2ccccn2)cc1",
    "observed": "275 to 278 °C"
  },
  {
    "querySmiles": "O=C(Nc1ccccc1C(=O)N/N=C/c1ccc(O)cc1O)c1ccccn1",
    "observed": "215 to 217 °C"
  }
]

Find the recorded melting point belonging to O=C(Nc1ccccc1C(=O)N/N=C/c1ccccc1)c1ccccn1 and report it. 205 to 207 °C

Find the recorded melting point belonging to O=C(Nc1ccccc1C(=O)N/N=C/c1ccccn1)c1ccccn1 and report it. 225 to 227 °C

----------
propertyName: melting point

[
  {
    "compound": "O=C(Nc1ccccc1C(=O)Nc1ccc(S(=O)(=O)Nc2nccs2)cc1)c1ccccn1",
    "melting point": "217 to 219 °C"
  },
  {
    "compound": "COC(=O)c1ccccc1NC(=O)c1ccccn1 [Compound 1, Methyl 2-(picolinamido)benzoate]",
    "melting point": "210 to 212 °C"
  },
  {
    "compound": "O=C(Nc1ccccc1C(=O)N/N=C/c1ccc(Cl)cc1Cl)c1ccccn1",
    "melting point": "212 to 214 °C"
  },
  {
    "compound": "O=C(Nc1ccccc1C(=O)NCc1ccc(Cl)cc1)c1ccccn1",
    "melting point": "233 to 235 °C"
  }
]

Attention now turns to another entry.
Find the recorded melting point belonging to NNC(=O)c1ccccc1NC(=O)c1ccccn1 and report it. 210 to 212 °C

----------
targetDesc: α-Glucosidase from Saccharomyces cerevisiae
testDescription: α-Glucosidase inhibition assay (spectrophotometric, p-nitrophenyl-α-D-glucopyranoside)
Type: biochemical
conditionSet: mean ± spread, triplicate
propertyName: IC50 (nM)
Please reply with the bare figure in nM and do not write the unit itself.

[
  {
    "compound": "O=C(Nc1ccccc1C(=O)Nc1ccc(S(=O)(=O)Nc2nccs2)cc1)c1ccccn1 [Compound 5c]",
    "IC50, nM": 12.5
  },
  {
    "compound": "O=C(Nc1ccccc1C(=O)N/N=C/c1ccc(Cl)cc1Cl)c1ccccn1 [Compound 7d]",
    "IC50, nM": 78.4
  },
  {
    "compound": "COc1ccc(CNC(=O)c2ccccc2NC(=O)c2ccccn2)cc1 [Compound 3b]",
    "IC50, nM": 22.3
  }
]

// map O=C(Nc1ccccc1C(=O)NCc1ccc(Cl)cc1)c1ccccn1 [Compound 3d] to recorded IC50 (system: α-Glucosidase from Saccharomyces cerevisiae) 94.7

// map O=C(Nc1ccccc1C(=O)Nc1ccc(S(=O)(=O)Nc2ccccn2)cc1)c1ccccn1 [Compound 5b] to recorded IC50 (system: α-Glucosidase from Saccharomyces cerevisiae) 21.2

// map O=C(Nc1ccccc1C(=O)NCc1ccccc1)c1ccccn1 [Compound 3a] to recorded IC50 (system: α-Glucosidase from Saccharomyces cerevisiae) 89.6

// map O=C(Nc1ccccc1C(=O)N/N=C/c1ccc(O)cc1O)c1ccccn1 [Compound 7b] to recorded IC50 (system: α-Glucosidase from Saccharomyces cerevisiae) 17.6

// map O=C(Nc1ccccc1C(=O)N/N=C/c1ccccn1)c1ccccn1 [Compound 7c] to recorded IC50 (system: α-Glucosidase from Saccharomyces cerevisiae) 231

// map NS(=O)(=O)c1ccc(NC(=O)c2ccccc2NC(=O)c2ccccn2)cc1 [Compound 5a] to recorded IC50 (system: α-Glucosidase from Saccharomyces cerevisiae) 47.7
